- ASSAY_SUMMARY: ATG_CMV_CIS: Attagene CIS-FACTORIAL HepG2 Assay for human CMV (Internal Marker) (AID 2282928);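 note: endpoint acts as a background internal control marker rather than a target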
- REPORTED_CONDITIONS: HepG2 CMV promoter reporter, transcription factor profiling; actives raise or lower the signal
Active and inactive are the calls of the source. Rule for the calls: active = hit-call score of the fitted dose curve at least 0.9, where 1 is the maximum; inactive = score below 0.9.
Classes used: label 1 = active, label 0 = inactive

>>> assigned_label("CCCCCCCCC(=O)O")
"label 0"
>>> assigned_label("CN1CCN(c2ccccc2/C=C2\\SCCN(c3ccc(Cl)c(Cl)c3)C2=O)CC1")
"label 0"
>>> assigned_label("CC(C)(C)c1cccc(C(C)(C)C)c1O")
"label 1"
>>> assigned_label("CCc1ccc(CCOc2ccc(CC3SC(=O)NC3=O)cc2)nc1 (stereo unspecified)")
"label 0"
>>> assigned_label("CC(=O)NC1(c2cccc(F)c2)CCN(CC[C@@]2(c3ccc(Cl)c(Cl)c3)CN(c3ccccc3)C(=O)CO2)CC1")
"label 1"
>>> assigned_label("COc1cc(CCC(=O)CC(=O)CCc2ccc(O)c(OC)c2)ccc1O")
"label 0"

###

- Read-out: CYP3A5 (gene 1577)
- ASSAY_SUMMARY: LTEA_HepaRG_CYP3A5: Life Technologies and Expression Analysis (LTEA) Assay for CYP3A5 using HepaRG (AID 2283493)
- REPORTED_CONDITIONS: mRNA level, 48 h; actives raise or lower the signal
Calls of active or inactive are those of the source. Rule for the calls: active = hit-call score of the fitted dose curve at least 0.9, where 1 is the maximum; inactive = score below 0.9.
RESULT_TYPE: AC50

>>> result("CC(C)(C)c1cccc(C(C)(C)C)c1O")
"inactive"
>>> result("CCC(=C(c1ccc(O)cc1)c1ccc(OCCN(C)C)cc1)c1ccccc1")
"92.9 µM (active)"
>>> result("N#C[C@@H]1CC(F)(F)CN1C(=O)CNC1CC2CCC(C1)N2c1ncccn1 (stereo partly specified)")
"inactive"
>>> result("CCOC(=O)CC(O)(CC(=O)OCC)C(=O)OCC")
"inactive"
>>> result("CCCCC(CC)COC(=O)CCCCC(=O)OCc1ccccc1 (stereo unspecified)")
"inactive"
>>> result("CCCCCCCC(=O)O")
"inactive"

###

- Read-out: Interleukin-8 (IL8), CXCL8 (gene 3576)
- ASSAY_SUMMARY: BSK_hDFCGF_IL8: BioMAP Diversity Plus: hDFCGF Assay for Interleukin-8 (IL8) Biomarker Activity (AID 2283058)
- REPORTED_CONDITIONS: primary human foreskin fibroblasts; actives raise or lower the signal
Activity calls are given as the source filed them. Rule for the calls: active = hit-call score of the fitted dose curve at least 0.9, where 1 is the maximum; inactive = score below 0.9.
Labels: active, inactive

>>> assigned_label("CCCOc1sc(C(=O)N2CCC(c3cc(CN)ccc3F)CC2)c(C)c1Br")
"active"
>>> assigned_label("CCOC(=O)CC(O)(CC(=O)OCC)C(=O)OCC")
"inactive"
>>> assigned_label("c1ccc2c(c1)ccc1ccccc12")
"inactive"
>>> assigned_label("NC(=O)N(O)[C@@H]1C=C[C@H](Oc2cccc(Oc3ccc(F)cc3)c2)C1")
"inactive"
>>> assigned_label("Cc1cc(C)c(O)c(C)c1")
"inactive"
>>> assigned_label("CC(C)(C)c1cc(C(C)(C)C)c(O)c(C(C)(C)C)c1")
"active"
>>> assigned_label("CCC(C)(C)C1CCC(O)CC1 (stereo not drawn)")
"inactive"
>>> assigned_label("CC1=C(/C=C/C(C)=C/C=C/C(C)=C/C(=O)O)C(C)(C)CCC1")
"active"
>>> assigned_label("CC(O)CO (stereo not drawn)")
"inactive"
>>> assigned_label("CC(C)(C)c1ccc(O)c(C(C)(C)C)c1")
"active"
>>> assigned_label("CN(C)C=O")
"inactive"
>>> assigned_label("CCCCCCCCCCCCc1ccccc1S(=O)(=O)O")
"active"
>>> assigned_label("CCc1nn(C2CCCCC2)c2cc(C3(C#N)CCC(C(=O)O)CC3)ccc12 (stereo not drawn)")
"inactive"
